System: NCI-H1734
protocol: relative viability (nuclei count vs DMSO), 5 days (fraction); higher = more cells survive
study.conditions: first compound 0.6325 µM
measurement.name: relative viability
Give bare numbers.

{"columns": ["compound", "relative viability"],
 "data": [
  ["CN1CCN(CCOc2cc(OC3CCOCC3)c3c(Nc4c(Cl)ccc5c4OCO5)ncnc3c2)CC1 [Saracatinib] + Cc1cc(Nc2cc(N3CCN(C)CC3)nc(Sc3ccc(NC(=O)C4CC4)cc3)n2)n[nH]1 [Tozasertib] (partner 0.1 µM)", 0.261],
  ["CN1CCN(CCOc2cc(OC3CCOCC3)c3c(Nc4c(Cl)ccc5c4OCO5)ncnc3c2)CC1 [Saracatinib] + Cc1nc(NC(=O)N2CCC[C@H]2C(N)=O)sc1-c1ccnc(C(C)(C)C(F)(F)F)c1 [Alpelisib] (partner 2 µM)", 0.646],
  ["CN1CCN(CCOc2cc(OC3CCOCC3)c3c(Nc4c(Cl)ccc5c4OCO5)ncnc3c2)CC1 [Saracatinib] + CC(=O)c1c(C)c2cnc(Nc3ccc(N4CCNCC4)cn3)nc2n(C2CCCC2)c1=O [Palbociclib] (partner 0.5 µM)", 0.372],
  ["CN1CCN(CCOc2cc(OC3CCOCC3)c3c(Nc4c(Cl)ccc5c4OCO5)ncnc3c2)CC1 [Saracatinib] + CC(C)C[C@H](NC(=O)[C@H](Cc1ccccc1)NC(=O)c1cnccn1)B(O)O [Bortezomib] (partner 0.002 µM)", 0.891],
  ["CN1CCN(CCOc2cc(OC3CCOCC3)c3c(Nc4c(Cl)ccc5c4OCO5)ncnc3c2)CC1 [Saracatinib] + CS(=O)(=O)CCNCc1ccc(-c2ccc3ncnc(Nc4ccc(OCc5cccc(F)c5)c(Cl)c4)c3c2)o1 [Lapatinib] (partner 2 µM)", 0.999]
]}

Fill in relative viability for each of the 2 compounds listed.
1. Cc1csc(=NC2CCCCC2)n1/N=C/c1ccc(O)c(O)c1O [MIM1] + CC(=O)c1c(C)c2cnc(Nc3ccc(N4CCNCC4)cn3)nc2n(C2CCCC2)c1=O [Palbociclib] (partner 0.5 µM)
2. CN1CCN(CCOc2cc(OC3CCOCC3)c3c(Nc4c(Cl)ccc5c4OCO5)ncnc3c2)CC1 [Saracatinib] + COc1cccc2cc(-c3nc([C@H]4CC[C@H](C(=O)O)CC4)n4ncnc(N)c34)[nH]c12 [OSI-027] (partner 0.5 µM)

**Result**
0.361
0.571

----------
Tested on: SK-LU-1
protocol: relative viability (nuclei count vs DMSO), 5 days (fraction); higher = more cells survive
study.conditions: first compound 0.06325 µM
Param label: returns condition met when relative viability < 0.1, returns condition not met otherwise, including exact equality.

Worked examples follow.
{"columns": ["molecule", "label"],
 "data": [
  ["CCNC(=O)c1noc(-c2cc(C(C)C)c(O)cc2O)c1-c1ccc(CN2CCOCC2)cc1 [Luminespib] + Cc1nc(Nc2ncc(C(=O)Nc3c(C)cccc3Cl)s2)cc(N2CCN(CCO)CC2)n1 [Dasatinib] (partner 0.075 µM)", "condition met"],
  ["CCNC(=O)c1noc(-c2cc(C(C)C)c(O)cc2O)c1-c1ccc(CN2CCOCC2)cc1 [Luminespib] + Cc1nc(NC(=O)N2CCC[C@H]2C(N)=O)sc1-c1ccnc(C(C)(C)C(F)(F)F)c1 [Alpelisib] (partner 2 µM)", "condition not met"],
  ["CCNC(=O)c1noc(-c2cc(C(C)C)c(O)cc2O)c1-c1ccc(CN2CCOCC2)cc1 [Luminespib] + COc1cccc2cc(-c3nc([C@H]4CC[C@H](C(=O)O)CC4)n4ncnc(N)c34)[nH]c12 [OSI-027] (partner 0.5 µM)", "condition met"],
  ["CCNC(=O)c1noc(-c2cc(C(C)C)c(O)cc2O)c1-c1ccc(CN2CCOCC2)cc1 [Luminespib] + CC(=O)c1c(C)c2cnc(Nc3ccc(N4CCNCC4)cn3)nc2n(C2CCCC2)c1=O [Palbociclib] (partner 0.5 µM)", "condition not met"]
]}

**Query** Does the reported relative viability of the following molecule sit strictly below 0.1? CCNC(=O)c1noc(-c2cc(C(C)C)c(O)cc2O)c1-c1ccc(CN2CCOCC2)cc1 [Luminespib] + CC1(C)CCC(c2ccc(Cl)cc2)=C(CN2CCN(c3ccc(C(=O)NS(=O)(=O)c4ccc(N[C@H](CCN5CCOCC5)CSc5ccccc5)c(S(=O)(=O)C(F)(F)F)c4)cc3)CC2)C1 [Navitoclax] (partner 0.5 µM)
**Result** condition not met

----------
Test system: NCI-H1651
protocol: relative viability (nuclei count vs DMSO), 5 days (fraction); higher = more cells survive
study.conditions: first compound 0.2 µM
measurement.name: relative viability
One number for each entry.

{"columns": ["compound", "target.of.assay", "result.value"],
 "data": [
  ["CCNC(=O)c1noc(-c2cc(C(C)C)c(O)cc2O)c1-c1ccc(CN2CCOCC2)cc1 [Luminespib] + C[C@@H](Oc1cc(-c2cnn(C3CCNCC3)c2)cnc1N)c1c(Cl)ccc(F)c1Cl [Crizotinib] (partner 1 µM)", "NCI-H1651", 0.63]
]}

Fill in relative viability for each of the 5 compounds listed.
1. CCNC(=O)c1noc(-c2cc(C(C)C)c(O)cc2O)c1-c1ccc(CN2CCOCC2)cc1 [Luminespib] + O=C(CCCCCCC(=O)Nc1ccccc1)NO [Vorinostat] (partner 1 µM)
2. CCNC(=O)c1noc(-c2cc(C(C)C)c(O)cc2O)c1-c1ccc(CN2CCOCC2)cc1 [Luminespib] + COc1cc2c(Oc3ccc(NC(=O)C4(C(=O)Nc5ccc(F)cc5)CC4)cc3F)ccnc2cc1OCCCN1CCOCC1 [Foretinib] (partner 0.25 µM)
3. CN1CCN(CCOc2cc(OC3CCOCC3)c3c(Nc4c(Cl)ccc5c4OCO5)ncnc3c2)CC1 [Saracatinib] + CC(=O)Nc1cccc(-n2c(=O)n(C3CC3)c(=O)c3c(Nc4ccc(I)cc4F)n(C)c(=O)c(C)c32)c1 [Trametinib] (partner 0.02 µM)
4. CN1CCN(CCOc2cc(OC3CCOCC3)c3c(Nc4c(Cl)ccc5c4OCO5)ncnc3c2)CC1 [Saracatinib] + CC(C)C[C@H](NC(=O)[C@H](Cc1ccccc1)NC(=O)c1cnccn1)B(O)O [Bortezomib] (partner 0.002 µM)
5. CN1CCN(CCOc2cc(OC3CCOCC3)c3c(Nc4c(Cl)ccc5c4OCO5)ncnc3c2)CC1 [Saracatinib] + N=C(N)NC(=N)NCCc1ccccc1 [Phenformin] (partner 250 µM)

**Result**
1. 0.505
2. 0.208
3. 0.593
4. 0.775
5. 0.258

----------
System: COR-L 105
protocol: relative viability (nuclei count vs DMSO), 5 days (fraction); higher = more cells survive
study.conditions: first compound 0.6325 µM
Param label: returns True when relative viability < 0.4, returns False otherwise, including exact equality.

Worked examples follow.
{"columns": ["compound", "label"],
 "data": [
  ["Cc1csc(=NC2CCCCC2)n1/N=C/c1ccc(O)c(O)c1O [MIM1] + CS(=O)(=O)N1CCN(Cc2cc3nc(-c4cccc5[nH]ncc45)nc(N4CCOCC4)c3s2)CC1 [Pictilisib] (partner 1 µM)", "True"],
  ["Cc1csc(=NC2CCCCC2)n1/N=C/c1ccc(O)c(O)c1O [MIM1] + Cc1cc(Nc2cc(N3CCN(C)CC3)nc(Sc3ccc(NC(=O)C4CC4)cc3)n2)n[nH]1 [Tozasertib] (partner 0.1 µM)", "True"],
  ["CN1CCN(CCOc2cc(OC3CCOCC3)c3c(Nc4c(Cl)ccc5c4OCO5)ncnc3c2)CC1 [Saracatinib] + O=C(c1cc(Cc2n[nH]c(=O)c3ccccc23)ccc1F)N1CCN(C(=O)C2CC2)CC1 [Olaparib] (partner 8 µM)", "False"],
  ["CN1CCN(CCOc2cc(OC3CCOCC3)c3c(Nc4c(Cl)ccc5c4OCO5)ncnc3c2)CC1 [Saracatinib] + CC(=O)Nc1cccc(-n2c(=O)n(C3CC3)c(=O)c3c(Nc4ccc(I)cc4F)n(C)c(=O)c(C)c32)c1 [Trametinib] (partner 0.02 µM)", "True"],
  ["CN1CCN(CCOc2cc(OC3CCOCC3)c3c(Nc4c(Cl)ccc5c4OCO5)ncnc3c2)CC1 [Saracatinib] + Nc1ncn([C@H]2C[C@H](O)[C@@H](CO)O2)c(=O)n1 [Decitabine] (partner 2 µM)", "False"]
]}

**Query** Does the reported relative viability of the following compound sit strictly below 0.4? Cc1csc(=NC2CCCCC2)n1/N=C/c1ccc(O)c(O)c1O [MIM1] + Cc1nc(NC(=O)N2CCC[C@H]2C(N)=O)sc1-c1ccnc(C(C)(C)C(F)(F)F)c1 [Alpelisib] (partner 2 µM)
**Result** False

**Query** Does the reported relative viability of the following compound sit strictly below 0.4? Cc1csc(=NC2CCCCC2)n1/N=C/c1ccc(O)c(O)c1O [MIM1] + O=C(CCCCCCC(=O)Nc1ccccc1)NO [Vorinostat] (partner 1 µM)
**Result** False

**Query** Does the reported relative viability of the following compound sit strictly below 0.4? CN1CCN(CCOc2cc(OC3CCOCC3)c3c(Nc4c(Cl)ccc5c4OCO5)ncnc3c2)CC1 [Saracatinib] + Cc1nc(Nc2ncc(C(=O)Nc3c(C)cccc3Cl)s2)cc(N2CCN(CCO)CC2)n1 [Dasatinib] (partner 0.075 µM)
**Result** True

**Query** Does the reported relative viability of the following compound sit strictly below 0.4? CN1CCN(CCOc2cc(OC3CCOCC3)c3c(Nc4c(Cl)ccc5c4OCO5)ncnc3c2)CC1 [Saracatinib] + COc1cc2c(Oc3ccc(NC(=O)C4(C(=O)Nc5ccc(F)cc5)CC4)cc3F)ccnc2cc1OCCCN1CCOCC1 [Foretinib] (partner 0.25 µM)
**Result** False
